molecular target: Histone-lysine N-methyltransferase EHMT2 (Homo sapiens)
Sequence (Q96KQ7 whole entry): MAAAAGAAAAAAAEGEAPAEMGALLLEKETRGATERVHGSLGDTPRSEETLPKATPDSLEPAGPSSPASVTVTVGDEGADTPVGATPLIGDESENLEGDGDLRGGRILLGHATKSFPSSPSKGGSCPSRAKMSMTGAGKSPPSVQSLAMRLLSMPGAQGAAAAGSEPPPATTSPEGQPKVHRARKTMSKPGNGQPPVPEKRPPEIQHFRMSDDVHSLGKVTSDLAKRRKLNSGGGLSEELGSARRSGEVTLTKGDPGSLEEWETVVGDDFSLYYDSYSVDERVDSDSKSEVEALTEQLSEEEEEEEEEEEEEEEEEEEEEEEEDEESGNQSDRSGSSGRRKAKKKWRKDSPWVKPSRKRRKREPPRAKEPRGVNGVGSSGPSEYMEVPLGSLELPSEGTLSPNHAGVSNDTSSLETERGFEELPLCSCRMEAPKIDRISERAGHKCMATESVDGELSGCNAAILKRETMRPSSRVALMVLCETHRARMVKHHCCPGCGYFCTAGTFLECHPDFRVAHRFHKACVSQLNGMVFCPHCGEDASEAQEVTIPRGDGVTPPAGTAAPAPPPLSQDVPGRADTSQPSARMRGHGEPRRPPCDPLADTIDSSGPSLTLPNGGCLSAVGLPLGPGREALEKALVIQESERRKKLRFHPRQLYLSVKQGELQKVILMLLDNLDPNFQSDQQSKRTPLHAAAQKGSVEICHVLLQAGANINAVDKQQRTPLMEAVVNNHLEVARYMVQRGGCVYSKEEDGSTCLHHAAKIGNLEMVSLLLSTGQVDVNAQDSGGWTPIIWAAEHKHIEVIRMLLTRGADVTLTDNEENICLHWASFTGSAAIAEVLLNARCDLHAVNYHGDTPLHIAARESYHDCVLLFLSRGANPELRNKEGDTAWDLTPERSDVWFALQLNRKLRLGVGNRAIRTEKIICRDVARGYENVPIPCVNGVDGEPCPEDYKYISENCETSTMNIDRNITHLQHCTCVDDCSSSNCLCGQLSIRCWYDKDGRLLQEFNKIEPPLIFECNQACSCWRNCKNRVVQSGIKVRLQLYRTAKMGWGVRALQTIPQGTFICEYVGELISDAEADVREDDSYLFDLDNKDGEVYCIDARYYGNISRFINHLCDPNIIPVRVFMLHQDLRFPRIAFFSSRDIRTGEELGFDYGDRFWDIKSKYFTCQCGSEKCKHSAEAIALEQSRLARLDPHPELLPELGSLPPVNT
Measure name: pIC50
# pIC50 = -log10(concentration in molar units)

Reported pIC50 ( COc1ccc(C(=O)Oc2ccc(CCn3c(NC(=O)c4ccc(C(F)(F)F)cc4)nc4cc(C(=O)O)ccc43)cc2)cc1 ) = 5.33

* * *

biological target: Lysine-specific histone demethylase 1A (Homo sapiens); test: Inhibition of LSD-1 (unknown origin)
Measure name: IC50 (nM)
A number alone suffices; assume nM.

// compound NC1CC1c1c(F)cc(F)cc1OCc1ccccc1 (stereo unspecified) , assay Lysine-specific histone demethylase 1A (Homo sapiens), IC50 value: 990

* * *

biological target: Lysine-specific demethylase 2A (Homo sapiens, UniProt Q9Y2K7); assay: Inhibition of FBXL11 (unknown origin) expressed in HEK293 cells
Sequence (Q9Y2K7 whole entry): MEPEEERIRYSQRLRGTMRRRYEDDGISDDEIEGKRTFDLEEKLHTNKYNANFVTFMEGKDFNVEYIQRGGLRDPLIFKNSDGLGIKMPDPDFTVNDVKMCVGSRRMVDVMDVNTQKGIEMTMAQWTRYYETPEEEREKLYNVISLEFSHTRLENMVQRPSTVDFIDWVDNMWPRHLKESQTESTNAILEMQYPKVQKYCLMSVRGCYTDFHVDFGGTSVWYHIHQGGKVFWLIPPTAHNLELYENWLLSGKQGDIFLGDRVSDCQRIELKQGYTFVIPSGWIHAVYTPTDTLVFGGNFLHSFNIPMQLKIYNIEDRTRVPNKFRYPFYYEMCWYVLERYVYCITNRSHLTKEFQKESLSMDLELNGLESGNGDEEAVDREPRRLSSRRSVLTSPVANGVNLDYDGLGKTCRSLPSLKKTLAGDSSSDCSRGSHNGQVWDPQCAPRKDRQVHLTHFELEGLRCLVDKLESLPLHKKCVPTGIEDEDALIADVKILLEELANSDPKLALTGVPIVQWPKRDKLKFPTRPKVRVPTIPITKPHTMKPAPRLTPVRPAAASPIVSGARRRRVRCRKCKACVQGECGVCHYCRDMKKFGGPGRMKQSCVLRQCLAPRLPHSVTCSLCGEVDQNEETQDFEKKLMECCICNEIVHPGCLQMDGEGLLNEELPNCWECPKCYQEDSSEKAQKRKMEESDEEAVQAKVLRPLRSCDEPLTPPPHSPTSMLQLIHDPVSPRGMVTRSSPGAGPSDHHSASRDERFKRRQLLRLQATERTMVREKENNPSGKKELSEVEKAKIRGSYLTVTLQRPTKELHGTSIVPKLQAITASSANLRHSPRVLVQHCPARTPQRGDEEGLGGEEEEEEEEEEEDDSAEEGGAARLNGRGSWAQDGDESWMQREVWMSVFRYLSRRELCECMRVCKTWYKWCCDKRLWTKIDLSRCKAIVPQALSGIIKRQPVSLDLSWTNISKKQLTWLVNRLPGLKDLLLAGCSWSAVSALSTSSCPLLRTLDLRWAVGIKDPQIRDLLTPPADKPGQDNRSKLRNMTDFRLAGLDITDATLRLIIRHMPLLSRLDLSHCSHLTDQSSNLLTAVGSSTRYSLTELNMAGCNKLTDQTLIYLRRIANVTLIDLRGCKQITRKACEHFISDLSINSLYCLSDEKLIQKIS
Measure name: IC50

Reported IC50 ( [N-]=[N+]=Nc1ccc(C(=O)N[C@@H](CCCCNC(=O)COCCOCCNC(=O)CCCC[C@@H]2SC[C@@H]3NC(=O)N[C@@H]32)C(=O)NCCCNC(=O)c2ccc(O)c3ncccc23)cc1 ) = 9.1 µM

The values you see were collected from ChEMBL document CHEMBL3390834.
